Structures can show the parent of a compound that is named as a salt.
Measured melting point, listed per entry for reference.

Ask: Provide one value: measured melting point of CCCCOC(=O)N1CCCC(c2nc(-c3ccc(-c4ccccc4)cc3)c[nH]2)C1 (stereo not drawn) [Example 24]
Result: 116 to 117 °C

Ask: Input Fc1ccc(-c2c[nH]c(C3CCCCN3Cc3ccccc3)n2)cc1 (stereo not drawn) [Example 17] , output reported melting point.
Result: 181.6 °C

Ask: # return recorded melting point for input CCCCOC(=O)N1CCC(c2nc(-c3ccc(-c4ccccc4)cc3)c[nH]2)CC1 [Example 20]
Result: 73 to 74 °C

Ask: Provide only the value of recorded melting point for CCCCOC(=O)N1CCCC(c2nc(-c3ccc(F)cc3)c[nH]2)C1 (stereo not drawn)
Result: 96.5 °C

Ask: Answer with the recorded melting point of COc1ccc(-c2c[nH]c(C3CCNCC3)n2)cc1 (as salt: hydrochloride) only.
Result: 272 to 273 °C

Ask: Give melting point for the following molecule: CCCCOC(=O)N1CCCCC1c1nc(-c2ccc(F)cc2)c[nH]1 (stereo not drawn)
Result: 157.4 °C

* * *

Counter-ions that a name gives are not always drawn.
measure_name: melting point

> print(dat)
                                   molecule   measure.name  observed.measurement
1  c1ccc(CN2CCC(c3nc(-c4ccc(-c5ccccc5)cc4)c[nH]3)CC2)cc1  melting point         110 to 112 °C

Ask: Quickly give me recorded melting point for Fc1ccc(-c2c[nH]c(C3CCNCC3)n2)cc1 (as salt: hydrochloride)
Result: > 260 °C

Ask: Tell me measured melting point for CC(C)(C)OC(=O)N1CCC(c2nc(-c3ccc(F)cc3)c[nH]2)CC1 please.
Result: 180 to 182 °C

Ask: Please give measured melting point of the following entry: CCCCOC(=O)N1CCCCC1c1nc(-c2ccc(-c3ccccc3)cc2)c[nH]1 (stereo not drawn)
Result: 166 to 167 °C

Ask: Name the recorded melting point of the item CCCCOC(=O)N1CCC(c2nc(-c3ccc(C(C)(C)C)cc3)c[nH]2)CC1 in your answer.
Result: 98 to 100 °C

Ask: Annotate the molecule Fc1ccc(-c2c[nH]c(C3CCCCN3)n2)cc1 (stereo not drawn) (as salt: hydrochloride) with its measured melting point.
Result: 222 to 223 °C

Ask: Supply measured melting point of CCCCOC(=O)N1CCC(c2nc(-c3ccc(OC)cc3)c[nH]2)CC1 in your reply.
Result: 48 to 50 °C

Ask: Given the molecule c1ccc(-c2ccc(-c3c[nH]c(C4CCCNC4)n3)cc2)cc1 (stereo not drawn) (as salt: hydrochloride) , write its reported melting point.
Result: 226 to 227 °C

Ask: Read off the recorded melting point for CCCCCCN1CCC(c2nc(-c3ccc(-c4ccccc4)cc3)c[nH]2)CC1
Result: 138 to 139 °C
